Attribution: ChEMBL document CHEMBL5038625

Test system: SW-620
Assay: Antiproliferative activity against human SW-620 cells assessed as reduction in cell viability incubated for 24 hrs by sulforhodamine B assay
Conditions: SW-620, 24 h
MEASURE: IC50
Answer with the number, then the unit.

// query IC50 value for entry COc1ccc(OC)c(-c2nc(SCC(=O)c3ccc(Br)cc3)nc(Nc3ccc(S(N)(=O)=O)cc3)c2C#N)c1 4.5 µM

====

Please respond with reported inhibition of growth at 10 µM for every item in the list.
Tested on: SN12C
Assay: Antiproliferative activity against human SN12C cells assessed as cell growth inhibition at 10 uM incubated for 24 hrs by sulforhodamine B assay
Assay type: functional
Conditions: read-out: GI
State the answer as a number, implicitly in %.

// query inhibition of growth at 10 µM value for entry COc1ccc(OC)c(-c2nc(SCC(=O)c3ccccc3)nc(Nc3ccc(S(N)(=O)=O)cc3)c2C#N)c1 14.1

// query inhibition of growth at 10 µM value for entry NS(=O)(=O)c1ccc(Nc2cc(-c3ccccc3)nc(SCC(=O)c3ccc(Br)cc3)n2)cc1 13.3

// query inhibition of growth at 10 µM value for entry CC(C)c1nc(SCC(=O)c2ccccc2)nc(Nc2cccc(S(N)(=O)=O)c2)c1C#N 8.21

// query inhibition of growth at 10 µM value for entry COc1ccc(OC)c(-c2nc(SCC(=O)c3ccc(Br)cc3)nc(Nc3cccc(S(N)(=O)=O)c3)c2C#N)c1 18.1

// query inhibition of growth at 10 µM value for entry Cc1ccc(-c2nc(SCC(=O)c3ccc(Br)cc3)nc(Nc3cccc(S(N)(=O)=O)c3)c2C#N)cc1 5.02

// query inhibition of growth at 10 µM value for entry Cc1ccc(-c2nc(SCC(=O)c3ccccc3)nc(Nc3ccc(S(N)(=O)=O)cc3)c2C#N)cc1 37

// query inhibition of growth at 10 µM value for entry COc1ccc(OC)c(-c2nc(SCC(=O)c3ccc(Br)cc3)nc(Nc3ccc(S(N)(=O)=O)cc3)c2C#N)c1 50.9

// query inhibition of growth at 10 µM value for entry CC(C)c1nc(SCC(=O)c2ccc(Br)cc2)nc(Nc2ccc(S(N)(=O)=O)cc2)c1C#N 5.41
